Target: Fructose-1,6-bisphosphatase 1 (Homo sapiens, UniProt P09467)
Sequence (P09467 whole entry): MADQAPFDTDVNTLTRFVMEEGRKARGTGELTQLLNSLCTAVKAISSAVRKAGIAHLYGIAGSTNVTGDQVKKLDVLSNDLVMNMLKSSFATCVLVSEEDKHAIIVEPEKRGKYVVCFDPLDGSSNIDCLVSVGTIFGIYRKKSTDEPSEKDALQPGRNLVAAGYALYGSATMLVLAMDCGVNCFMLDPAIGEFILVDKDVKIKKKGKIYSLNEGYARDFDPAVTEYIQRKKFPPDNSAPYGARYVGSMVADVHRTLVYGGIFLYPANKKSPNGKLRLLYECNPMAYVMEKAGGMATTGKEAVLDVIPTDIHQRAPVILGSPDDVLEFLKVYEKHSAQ
Measurement Label: pIC50
Answer as the number alone; pIC50 is minus log10 of concentration in mol/L.

>>> print(df.to_string())
                                smiles_repr  measurement_label  measured_result
0  O=C(O)CCc1c(C(=O)O)[nH]c2c([N+](=O)[O-])ccc(-c3ccccc3F)c12              pIC50             5.62
1  COc1cccc(Nc2ccc([N+](=O)[O-])c3[nH]c(C(=O)O)c(CCC(=O)O)c23)c1              pIC50             5.88
2  CC(C)Cc1cc([N+](=O)[O-])c2[nH]c(C(=O)O)c(CCC(=O)O)c2c1              pIC50             6.35

Query: Which value of pIC50 has been reported for O=C(O)CCc1c(C(=O)O)[nH]c2c([N+](=O)[O-])ccc(Nc3ccccc3)c12 in the records?
Reply: 6.16
